Below, each entry is listed alongside its reported Kd.
- Tested Target: T1, cyno EphA2 ectodomain (cyno, UniProt Q1KL86 25-537)
- T1 construct: extracellular domain
- T1 sequence (Q1KL86 25-537): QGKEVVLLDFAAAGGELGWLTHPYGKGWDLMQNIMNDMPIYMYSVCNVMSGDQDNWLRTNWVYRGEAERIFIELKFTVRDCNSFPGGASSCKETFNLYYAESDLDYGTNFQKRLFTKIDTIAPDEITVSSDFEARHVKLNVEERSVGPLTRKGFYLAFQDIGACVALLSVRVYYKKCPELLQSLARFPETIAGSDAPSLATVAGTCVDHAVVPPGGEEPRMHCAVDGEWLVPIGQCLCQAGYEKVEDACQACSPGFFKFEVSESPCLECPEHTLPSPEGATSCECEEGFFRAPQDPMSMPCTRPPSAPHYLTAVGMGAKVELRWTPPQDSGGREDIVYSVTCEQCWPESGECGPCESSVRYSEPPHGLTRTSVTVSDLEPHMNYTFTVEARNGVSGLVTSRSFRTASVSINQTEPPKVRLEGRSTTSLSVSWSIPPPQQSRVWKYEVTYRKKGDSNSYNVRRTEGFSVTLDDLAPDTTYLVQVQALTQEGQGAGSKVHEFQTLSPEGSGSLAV
- Test Name: SPR (Biacore 8k), Fab-capture, 37C, 1:1 model;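 further: Anti-EphA2 IgG captured via immobilized anti-Fab, soluble EphA2 ectodomain as analyte at six twofold dilutions from 50 nM, HBS-EP+ pH 7.6 running buffer, double reference subtraction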
Provide the reading as a plain figure in nM.

Check out these entries, answers already filled in.
anti-EphA2 E152C S375C 1C1 (LC S72T) hIgG1 (WT Heavy Chain) (antibody, V domains shown, also called 1C1 S72T IgG; FE-76-NO13) VH: EVQLLESGGGLVQPGGSLRLSCAASGFTFSHYMMAWVRQAPGKGLEWVSRIGPSGGPTHYADSVKGRFTISRDNSKNTLYLQMNSLRAEDTAVYYCAGYDSGYDYVAVAGPAEYFQHWGQGTLVTVSS VL: DIQMTQSPSSLSASVGDRVTITCRASQSISTWLAWYQQKPGKAPKLLIYKASNLHTGVPSRFSGSGSGTEFTLTISGLQPDDFATYYCQQYNSYSRTFGQGTKVEIKR ... 230
anti-EphA2 E152C S375C 1C1 (LC G77S) hIgG1 (WT Heavy Chain) (antibody, V domains shown, also called 1C1 G77S IgG; ZF-74-CQ11) VH: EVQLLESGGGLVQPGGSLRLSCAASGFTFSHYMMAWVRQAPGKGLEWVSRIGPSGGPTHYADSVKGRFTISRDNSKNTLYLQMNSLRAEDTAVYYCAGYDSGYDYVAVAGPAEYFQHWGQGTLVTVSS VL: DIQMTQSPSSLSASVGDRVTITCRASQSISTWLAWYQQKPGKAPKLLIYKASNLHTGVPSRFSGSGSGTEFSLTISSLQPDDFATYYCQQYNSYSRTFGQGTKVEIKR ... 222

Query string: Query (binder): 1C1 ADC (antibody, V domains shown, antibody-drug conjugate; linker-payload and conjugation sites not stated for this sample, Antibody-drug conjugate of 1C1; also called XD-01-KE85) VH: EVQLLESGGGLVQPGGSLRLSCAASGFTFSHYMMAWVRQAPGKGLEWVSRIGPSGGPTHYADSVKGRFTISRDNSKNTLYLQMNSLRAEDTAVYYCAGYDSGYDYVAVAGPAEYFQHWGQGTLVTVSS VL: DIQMTQSPSSLSASVGDRVTITCRASQSISTWLAWYQQKPGKAPKLLIYKASNLHTGVPSRFSGSGSGTEFSLTISGLQPDDFATYYCQQYNSYSRTFGQGTKVEIK ; field requested: Kd
Result string: 220
